Here, each record is paired with measured Phage binding ELISA signal, Anti-PSMA Fab data.
target: T1, Anti-PSMA Fab; experiment: clonal phage ELISA; biotinylated anti-PSMA Fab on neutravidin plate; anti-M13 HRP detection; no PSMA added
T1 construct: Biotinylated and captured on neutravidin plates in the phage ELISA; also called 006 PSMA Fab
Number only, no unit.

Guide cases for Phage binding ELISA signal, Anti-PSMA Fab, answers given:
Data request: Entry under review: ADHMCVPQWMCSGF [Phage-3619] . Reported Phage binding ELISA signal, Anti-PSMA Fab?
Data returned: 1.57

Data request: Continue with VHPMCTPLWMCVGF [Phage-3628]
Data returned: 1.55

Further cases:
Data request: Entry under review: VVAVCKPLWMCEAF [Phage-3618] . Reported Phage binding ELISA signal, Anti-PSMA Fab?
Data returned: 1.57

Data request: Continue with ELHLCIPSWMCTGL [Phage-3630]
Data returned: 1.54

Data request: Continue with DERMCVPEWMCMGM [Phage-3620]
Data returned: 1.57

Data request: Continue with DLMMCVPAWMCEGF [Phage-3629]
Data returned: 1.55

Data request: Continue with DWVMCKPEWMCAGF [Phage-3625]
Data returned: 1.55

Data request: Continue with AGYACVPSWMCEGF [Phage-3626]
Data returned: 1.55

Data request: Continue with YMMKCIPEWMCTGL [Phage-3622]
Data returned: 1.56
